Provide the reported growth of each item.
Tested on: EKVX NSCLC
Test: NCI-60 one-dose screen, 48 h (100 = growth as untreated, 0 = no growth, -100 = all killed)
Details: 10 µM unless noted
This is part of a sample that, as a whole, favours compounds with a hit. Of some 83,000 tested, about 20% had one in any assay.
Answers are plain numbers, in %.

Look over these answered cases.
C#CCOC(=O)C(N)CS (stereo not drawn)
92.9
COc1ccc(COC=O)cc1
109
O=[N+]([O-])c1cccc(N=Cc2ccccc2)c1
102
CCCC(=O)OCC(COC(=O)CCC)OC(=O)CCC
93.7

I would be grateful if you could provide growth for each of the following entries.
1. CCn1c2ccc(N(C)C)cc2c2cc(N(C)C)ccc21
2. COC(=O)c1nc(=S)[nH]c(C(=O)OC)c1C(=O)c1ccccc1
3. CC(=O)c1cc2ccccc2o1

OUT:
1: 88; 2: 107; 3: 106

I would be grateful if you could provide growth for each of the following entries.
1. O=[N+]([O-])c1ccc(N/N=C/C2CCCCCC2)c([N+](=O)[O-])c1
2. O=C1C=CC(n2cc(F)c(=O)[nH]c2=O)O1 (stereo not drawn)
3. COc1ccc(S(=O)(=O)c2ccc(F)cc2)cc1
4. CCC(C)NC(=O)c1ccccc1C (stereo not drawn)

OUT:
[84.9, 93.3, 122, 91.2]

I would be grateful if you could provide growth for each of the following entries.
1. Cc1ccc(NC(=S)N/C=C(\c2ccccc2)S(=O)Cc2ccccc2)c(C)c1 (stereo not drawn)
2. O=c1[nH]c(=S)[nH]n1C(=S)n1[nH]c(=S)[nH]c1=O

OUT:
86.7
105
